Numbers sourced from PubChem BioAssay.

- target.or.test.system: Streptavidin (Streptomyces avidinii) (UniProt P22629)
- Sequence (P22629 whole entry, looked up): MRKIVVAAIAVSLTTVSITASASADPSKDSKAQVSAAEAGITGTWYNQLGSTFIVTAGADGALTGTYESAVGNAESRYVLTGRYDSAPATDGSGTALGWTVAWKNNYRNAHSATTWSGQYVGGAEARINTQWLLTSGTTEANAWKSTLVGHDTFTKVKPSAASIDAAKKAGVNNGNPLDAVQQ
- procedure.details: streptavidin binders on small-molecule microarray, primary screen, artefact control for SMM compound annotation, biophysical, 635/667 nm fluorescence (AID 1147);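 further: signal reflects streptavidin binding to arrayed compounds as a control protein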
- measurement.conditions: streptavidin binding, higher = more signal
Quick rule: composite z-score of at least 0.07 means YES, below that means NO.

Exam item: decide whether the reported composite z-score for `O=C1C[C@@H](O)[C@@H](O)[C@@H]2[C@@H]3C(=O)N(Cc4ccccc4)C(=O)[C@@H]3CC[C@@H]12` is at least 0.07.
YES

Exam item: decide whether the reported composite z-score for `COC(=O)CC=C[C@@H](C)[C@@H](C=NO[C@H](C)c1cn([C@@H]2COC[C@H]2O)nn1)NS(=O)(=O)c1ccc(C)cc1` is at least 0.07.
NO

Exam item: decide whether the reported composite z-score for CCOC(=O)[C@H](Cc1ccccc1)NC(=O)CCC1CC(OC(=O)NCc2cccc3ccccc23)CC2(CCCC(COC(=O)NCc3ccccc3)O2)O1 (stereo partly drawn) is at least 0.07.
YES

Exam item: decide whether the reported composite z-score for Cc1ccc(S(=O)(=O)NC(CCc2ccccc2)CC(=O)C(C)(C)C)cc1 (stereo not drawn) is at least 0.07.
YES

Exam item: decide whether the reported composite z-score for `COc1cccc([C@H]2Oc3ccc(OC)cc3C(=NO[C@H](C)c3cn([C@H](CO)Cc4ccccc4)nn3)[C@@H]2O)c1` is at least 0.07.
NO

Exam item: decide whether the reported composite z-score for `C[C@@H]1NC(=O)[C@@H](C)COC(=O)[C@H](C)NC(=O)[C@@H](C)COC1=O` is at least 0.07.
NO

Exam item: decide whether the reported composite z-score for `O=C(NN=C1C[C@@H](O)[C@@H](O)[C@@H]2[C@@H]3C(=O)N(C[C@@H]4CCCO4)C(=O)[C@@H]3CC[C@@H]12)OCc1ccccc1` is at least 0.07.
NO

Exam item: decide whether the reported composite z-score for `C[C@@H](c1ccccc1)N1C(=O)[C@H]2[C@H]3[C@H](O)[C@H](O)CC(=NO[C@@H]4O[C@H](CO)[C@@H](O)[C@H](O)[C@H]4O)[C@H]3CC[C@H]2C1=O` is at least 0.07.
YES

Exam item: decide whether the reported composite z-score for CCOC(=O)[C@H](CC(C)C)NC(=O)CCC1CC(OC(=O)NCCc2ccc(F)cc2)CC2(CCCC(COC(=O)NCCc3ccccc3OC)O2)O1 (stereo partly drawn) is at least 0.07.
YES

Exam item: decide whether the reported composite z-score for CCOC(=O)[C@H](CC(C)C)NC(=O)CCC1CC(OC(=O)NCc2cccc3ccccc23)CC2(CCCC(COC(=O)NCc3cccc(C(F)(F)F)c3)O2)O1 (stereo partly drawn) is at least 0.07.
YES

Exam item: decide whether the reported composite z-score for COC(=O)[C@H](C)NC(=O)CCC1CC(OC(=O)NCc2ccc3c(c2)OCO3)CC2(CCCC(COC(=O)NCC3CCCCC3)O2)O1 (stereo partly drawn) is at least 0.07.
YES

Exam item: decide whether the reported composite z-score for O=C1CCCC(C2=CCCCC2=O)C1 (stereo not drawn) is at least 0.07.
NO
